- Target desc: T1, Human PD-L1 Dimer (human, UniProt Q9NZQ7 19-239)
- T1 construct: also called hPD-L1 dimer; hPD-L1-hFc
- T1 sequence (Q9NZQ7 19-239): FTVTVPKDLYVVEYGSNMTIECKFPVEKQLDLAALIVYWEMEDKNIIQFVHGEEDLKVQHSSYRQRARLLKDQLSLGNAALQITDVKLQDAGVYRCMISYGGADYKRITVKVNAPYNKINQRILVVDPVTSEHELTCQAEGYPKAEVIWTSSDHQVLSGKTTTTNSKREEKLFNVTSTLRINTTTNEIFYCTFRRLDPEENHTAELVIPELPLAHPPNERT
- Protocol details: SPR (Biacore), mAb captured, 25C
Observable: kon (M⁻¹ s⁻¹)
Give just the numeric value; M⁻¹ s⁻¹ need not be written.

Before answering, review these 2 worked examples.
{"Binder": "H2aM8323N (antibody, mouse IgG2, V domains shown, also called H2M8323N) VH: QVQLVQSGAEVKMPGSSVRVSCKASGGIFSSSTISWVRQAPGQGLEWMGEIIPVFGTVNYAQKFQDRVIFTADESTTTAYMELSSLKSGDTAVYFCARNWGLGSFYIWGQGTMVTVSS VL: EIVLTQSPGTLSLSPGERATLSCRASQSFNFNYLAWYQQKPGQAPRLLIYGASSRATGIPDRFSGSGSGTDFTLTINRLEPEDFGVFYCQQYESAPWTFGQGTKVEIK", "Measure unit": "M⁻¹ s⁻¹", "kon": "2.91e+06"}
{"Binder": "H2aM8321N (antibody, mouse IgG2, V domains shown, also called H2M8321N) VH: EERLVESGGDLVQPGGSLRLSCAASGITVGTNYMNWVRQAPGKGLEWVSVISSGGNTHYADSVKGRFIMSRQTSKNTLYLQMNSLETEDTAVYYCARGIRGLDVWGQGTMVTVSS VL: DIQMTQSPSSLSASVGDRVTITCRASQSMSSYLNWYQQKPGRAPKLLIFAASSLQSGVPSRFSGSGSGTDFTLTISSLQPEDFATYYCQQSYSTPPITFGQGTRLEIK", "Measure unit": "M⁻¹ s⁻¹", "kon": 813000}

(Q) Dear colleague, please send me the reported kon for H2aM8314N (antibody, mouse IgG2, V domains shown, also called H2M8314N) VH: EVQLVESGGGVVRPGGSLRLSCAASGFTFDDYGMTWVRQAPGRGLEWVSGIHWHGKRTGYADSVKGRFTISRDNAKKSLYLQMNSLKGEDTALYHCVRGGMSTGDWFDPWGQGTLVIVSS VL: DIQMTQSPSSLSASLGDRVTITCRASQSINSYLNWYQQKPGKAPKLLIYVASSLQSGVPSRFSGSGSGTEFTLTISNLQPEDFATYYCQQSYSTPPITFGQGTRLEIK when you can.
(A) 3.16e+06
